# testDescription: PAMPA (parallel artificial membrane permeability assay)
# Format: in vitro ADME
# conditionDetails: PAMPA, pH 6.5
Starred links: 1 amine or outer side, 2 acyl side, 3 side chain; linkers in the order of their positions; H or OH if unused. Positions of bridges follow the written chain, without caps; N, C: chain ends. Non-standard residues stand in square brackets, D forms with d. Residues, ends and D or L forms follow the SMILES beside them. ξ: configuration not given here. *: point of attachment. NMeF = CN[C@@H](Cc1ccccc1)C(=O)O; NMeGABA = CN(CCCC(=O)[*:2])[*:1]; NMeL = CN[C@@H](CC(C)C)C(=O)O; ξNMeF = CNC(Cc1ccccc1)C(=O)O; NMeV = CN[C@H](C(=O)O)C(C)C; NMeA = CN[C@@H](C)C(=O)O; Piperidide = C1CCN(*)CC1; Sar = CNCC(=O)O
valueKind: Papp at 18 hours, 50 µM (×10⁻⁶ cm/s)
A number alone suffices; assume ×10⁻⁶ cm/s.

Give a short answer stating reported Papp at 18 hours, 50 µM for CC(C)C[C@H]1C(=O)N[C@@H](C)C(=O)N(C)[C@@H](Cc2ccccc2)C(=O)N2CCC[C@H]2C(=O)N(C)[C@@H](CC(C)C)C(=O)N(C)[C@@H](C(C)C)C(=O)N[C@H](C(=O)N2CCCCC2)CC(=O)N(C)CCCC(=O)N[C@@H]([C@@H](C)O)C(=O)N(C)CC(=O)N(C)[C@@H](Cc2ccccc2)C(=O)N1C [DP-276] ([NMeGABA]T[Sar][NMeF][NMeL]A[NMeF]P[NMeL][NMeV]D-Piperidide; lactam N-11) .
19

Give a short answer stating reported Papp at 18 hours, 50 µM for CC(C)C[C@@H]1NC(=O)[C@H](Cc2ccccc2)N(C)C(=O)[C@H]([C@@H](C)O)NC(=O)[C@H](Cc2ccccc2)N(C)C(=O)[C@H](C)N(C)C(=O)[C@H](CC(C)C)N(C)C(=O)C[C@@H](C(=O)N2CCCCC2)NC(=O)[C@@H]2CCCN2C1=O [DP-688] ([NMeL][NMeA][NMeF]T[NMeF]LPD-Piperidide; lactam N-8) .
17

Give a short answer stating reported Papp at 18 hours, 50 µM for CC(C)C[C@H]1C(=O)N[C@@H](C(C)C)C(=O)N[C@H](C(=O)N(C)C(Cc2ccccc2)C(=O)N(C)[C@@H](Cc2ccccc2)C(=O)N[C@@H](C)C(=O)N2CCCCC2)CC(=O)N[C@H](C)C(=O)N(C)[C@@H](C)C(=O)N(C)[C@@H](Cc2ccccc2)C(=O)N(C)[C@@H](CC(C)C)C(=O)N[C@@H]([C@@H](C)O)C(=O)N(C)CC(=O)N1C (stereo partly drawn) [DP-315] ([dA][NMeA][NMeF][NMeL]T[Sar][NMeL]VD[ξNMeF][NMeF]A-Piperidide; lactam N-9) .
30
